# Organism: Homo sapiens
# protocolDetails: Selectivity for CB1 receptor over CB2 receptor
observedProperty: Ratio Ki
Keep the answer to the number alone.

>  <smilesRepr>
COCCOc1ccc(S(=O)(=O)c2ccc([C@H](C)NS(=O)(=O)C(F)(F)F)cc2)c(S(=O)(=O)c2ccccc2F)c1

>  <reading>
1600

$$$$

### Prompt Param item = C[C@H](NS(=O)(=O)C(F)(F)F)c1ccc(S(=O)(=O)c2ccc(Cl)cc2S(=O)(=O)NC(C)(C)C)cc1 ; retrieve measured Ratio Ki.
### Response 123

### Prompt Please answer likewise for C[C@H](NS(C)(=O)=O)c1ccc(S(=O)(=O)c2ccc(Cl)cc2S(=O)(=O)c2cccc[n+]2[O-])cc1
### Response 840

### Prompt Continue with C[C@H](NS(=O)(=O)C(F)(F)F)c1ccc(S(=O)(=O)c2ccc(Cl)cc2S(=O)(=O)c2c(N)cccc2F)cc1
### Response 1190

### Prompt Then what about the compound CCCS(=O)(=O)c1cc(Cl)ccc1S(=O)(=O)c1ccc([C@H](C)NS(C)(=O)=O)cc1 ?
### Response 57

### Prompt And C[C@H](NS(=O)(=O)C(F)(F)F)c1ccc(S(=O)(=O)c2ccc(Cl)cc2S(=O)(=O)c2c(F)cccc2N(C)C)cc1 ?
### Response 60

### Prompt Also check C[C@H](NS(=O)(=O)C(F)(F)F)c1ccc(S(=O)(=O)c2ccc(Cl)cc2S(=O)(=O)c2ncccn2)cc1
### Response 859
